# methodSummary: in vivo
# conditionLabel: both, Hartley, guinea pig, plasma, other: intratympanic, 5 μL
parameterMeasured: concentration at 1 week (ng/mL)
Give bare numbers, in ng/mL.

Using the record for C[C@@H]1C[C@H]2[C@@H]3CCC4=CC(=O)C=C[C@]4(C)[C@@]3(F)[C@@H](O)C[C@]2(C)[C@@]1(O)C(=O)CO [Dexamethasone, dexamethasone] , report its concentration at 1 week.
3.2
